From: patent US20260297109A1

// reported pIC50 for each item listed
- Target Of Assay: SAE (Homo sapiens)
- Construct: endogenous in cells; host or cells: HCT116
- Measurement Notes: SUMO IF: in vitro inhibitory activity assay against SAE in HCT116 cells (SUMO-2/3 immunofluorescence)
- Assay type: cell-based
- Conditions: class symbols, 6 h at 37° C.
pIC50: −log10 of the molar value.

Worked examples, 5 compounds total:
INSERT INTO assay_data (compound, result) VALUES
  ('NS(=O)(=O)OC[C@H]1[C@H](F)[C@@H](Nc2ncncc2C(=O)c2cc3c(s2)COC32NCCc3ccc(Cl)cc32)C[C@@H]1O (stereo partly drawn)', '6.70 to 7.30'),
  ('NS(=O)(=O)OC[C@H]1[C@H](F)[C@@H](Nc2ncncc2C(=O)c2cc3c(s2)CCCC32NCCc3ccc(F)cc32)C[C@@H]1O (stereo partly drawn)', '6.70 to 7.30'),
  ('NS(=O)(=O)OC[C@H]1[C@H](F)[C@@H](Nc2ncncc2C(=O)c2cc3c(s2)CC[C@]32NCCc3ccncc32)C[C@@H]1O', '6.70 to 7.30'),
  ('NS(=O)(=O)CC[C@H]1[C@H](F)[C@@H](Nc2ncncc2C(=O)c2cc3c(s2)CC[C@@]32NCCc3ccc(Cl)cc32)C[C@@H]1O', '< 6.70'),
  ('NS(=O)(=O)OC[C@H]1[C@H](F)[C@@H](Nc2ncncc2C(=O)c2cc3c(s2)C(F)=C[C@@]32NCCc3ccc(F)cc32)C[C@@H]1O', '< 6.70');

Field: next compound
Q. Recall the recorded pIC50 for Cc1ccc2c(c1)C(c1cc(C(=O)c3cncnc3N[C@H]3C[C@H](O)[C@@H](COS(N)(=O)=O)[C@@H]3F)sc1C)NCC2 (stereo partly drawn) with SAE (Homo sapiens) and state it.
A. 6.70 to 7.30

---

// reported Plasma AUClast for each item listed
- Measurement Notes: In vivo pharmacokinetic experiment in CD-1 female mice, intravenous
- Conditions: CD-1 mice, 2 mpk, plasma (Table 4)
Kindly answer with a numeric value in ng·h/mL, unit omitted.

INSERT INTO measurements (input_smiles, uom, numeric_result) VALUES
  ('NS(=O)(=O)OC[C@H]1[C@H](F)[C@@H](Nc2ncncc2C(=O)c2cc3c(s2)CC[C@]32NCCc3ccc(Cl)cc32)C[C@@H]1O', 'ng·h/mL', 602),
  ('NS(=O)(=O)OC[C@H]1[C@H](F)[C@@H](Nc2ncncc2C(=O)c2cc3c(s2)CCC[C@]32NCCc3ccc(F)cc32)C[C@@H]1O', 'ng·h/mL', 448),
  ('NS(=O)(=O)OC[C@H]1[C@H](F)[C@@H](Nc2ncncc2C(=O)c2cc3c(s2)CCC[C@]32NCCc3ccc(Cl)cc32)C[C@@H]1O', 'ng·h/mL', 615);

Field: next compound
Q. Would you mind telling me what Plasma AUClast value was observed for NS(=O)(=O)OC[C@H]1[C@H](F)[C@@H](Nc2ncncc2C(=O)c2cc3c(s2)C=C[C@]32NCCc3ccc(Cl)cc32)C[C@@H]1O ?
A. 345

---

- Measurement Notes: In vivo pharmacokinetic experiment in CD-1 female mice, intravenous
- Conditions: mouse, 1 mg/kg, CD-1 mice, 1 mpk, plasma
Reported Metric: half-life (h)
Kindly answer with a numeric value in h, unit omitted.

Q. Would you mind telling me what half-life value was observed for Cc1sc(C(=O)c2cncnc2N[C@H]2C[C@H](O)[C@@H](COS(N)(=O)=O)[C@@H]2F)cc1[C@@H]1NCCc2ccc(Cl)cc21 [Compound 233] ?
A. 3.63

---

// reported IC50 for each item listed
- Target Of Assay: SAE (Homo sapiens)
- Construct: endogenous in cells; host or cells: HCT116
- Sequence (Q9UBT2 1-640): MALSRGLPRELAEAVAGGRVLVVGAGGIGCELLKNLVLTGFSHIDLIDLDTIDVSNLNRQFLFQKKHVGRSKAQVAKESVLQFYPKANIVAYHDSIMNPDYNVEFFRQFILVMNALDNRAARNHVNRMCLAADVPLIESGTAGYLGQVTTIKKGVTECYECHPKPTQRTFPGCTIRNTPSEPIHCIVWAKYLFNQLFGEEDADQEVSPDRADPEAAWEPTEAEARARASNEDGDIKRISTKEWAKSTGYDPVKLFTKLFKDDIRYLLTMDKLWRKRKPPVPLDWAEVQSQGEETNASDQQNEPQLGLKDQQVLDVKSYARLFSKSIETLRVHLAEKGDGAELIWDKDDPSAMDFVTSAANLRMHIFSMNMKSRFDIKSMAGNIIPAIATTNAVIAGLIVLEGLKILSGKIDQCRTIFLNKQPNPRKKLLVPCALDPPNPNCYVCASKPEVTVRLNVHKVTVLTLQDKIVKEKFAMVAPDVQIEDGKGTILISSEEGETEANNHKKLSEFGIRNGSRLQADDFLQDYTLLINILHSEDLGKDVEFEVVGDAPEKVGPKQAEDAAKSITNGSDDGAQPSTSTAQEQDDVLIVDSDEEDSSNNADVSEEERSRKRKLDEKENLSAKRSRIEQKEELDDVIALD
- Sequence (Q9UBE0 1-346): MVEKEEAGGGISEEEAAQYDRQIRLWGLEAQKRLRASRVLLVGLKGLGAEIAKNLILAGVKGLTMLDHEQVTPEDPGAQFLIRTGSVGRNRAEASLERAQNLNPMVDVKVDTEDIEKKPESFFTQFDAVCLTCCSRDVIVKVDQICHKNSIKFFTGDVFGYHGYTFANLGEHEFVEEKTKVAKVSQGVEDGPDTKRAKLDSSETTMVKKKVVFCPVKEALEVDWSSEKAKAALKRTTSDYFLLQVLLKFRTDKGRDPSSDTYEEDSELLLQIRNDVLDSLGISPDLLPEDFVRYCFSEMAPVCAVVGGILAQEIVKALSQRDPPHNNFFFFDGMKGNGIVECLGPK
- Measurement Notes: SUMO IF: in vitro inhibitory activity assay against SAE in HCT116 cells (SUMO-2/3 immunofluorescence)
- Format: cell-based
- Conditions: class symbols, 6 h at 37° C.

Worked examples, 10 compounds total:
INSERT INTO assay_data (compound, result) VALUES
  ('CN1Cc2sc(C(=O)c3cncnc3N[C@H]3C[C@H](O)[C@@H](COS(N)(=O)=O)[C@@H]3F)cc2[C@@]2(C1)OCCc1ccccc12', '> 0.2 µM'),
  ('NS(=O)(=O)OC[C@H]1[C@H](F)[C@@H](Nc2ncncc2C(=O)c2cc3c(s2)CN(C2CC2)CC32OCCc3ccc(Cl)cc32)C[C@@H]1O (stereo partly drawn)', '0.05 to 0.2 µM'),
  ('NS(=O)(=O)OC[C@H]1[C@H](F)[C@@H](Nc2ncncc2C(=O)c2cc3c(s2)CSCC32NCCc3ncc(Cl)cc32)C[C@@H]1O (stereo partly drawn)', '0.05 to 0.2 µM'),
  ('CN1CCc2ccc(Cl)cc2[C@]12CCCc1sc(C(=O)c3cncnc3N[C@H]3C[C@H](O)[C@@H](COS(N)(=O)=O)[C@@H]3F)cc12', '> 0.2 µM'),
  ('NS(=O)(=O)OC[C@H]1[C@H](F)[C@@H](Nc2ncncc2C(=O)c2cc3c(s2)CN(C2CC2)C[C@]32OCCc3ccc(Cl)cc32)C[C@@H]1O', '≤ 0.05 µM'),
  ('NS(=O)(=O)OC[C@H]1[C@H](F)[C@@H](Nc2ncncc2C(=O)c2cc(C3NCCc4ccc(Cl)cc43)c(Cl)s2)C[C@@H]1O (stereo partly drawn)', '0.05 to 0.2 µM'),
  ('[2H]C1([2H])Cc2ccc(Cl)cc2C2(CCCc3sc(C(=O)c4cncnc4N[C@H]4C[C@H](O)[C@@H](COS(N)(=O)=O)[C@@H]4F)cc32)N1 (stereo partly drawn)', '0.05 to 0.2 µM'),
  ('NS(=O)(=O)OC[C@H]1[C@H](F)[C@@H](Nc2ncncc2C(=O)c2cc3c(s2)CCCC32NCCc3ccccc32)C[C@@H]1O (stereo partly drawn)', '0.05 to 0.2 µM'),
  ('NS(=O)(=O)OC[C@H]1[C@H](F)[C@@H](Nc2ncncc2C(=O)c2cc3c(s2)CSC[C@@]32NCCc3ccc(F)cc32)C[C@@H]1O', '> 0.2 µM'),
  ('NS(=O)(=O)OC[C@H]1[C@H](F)[C@@H](Nc2ncncc2C(=O)c2cc3c(s2)CCCC32NCCc3cc(F)c(Cl)c(F)c32)C[C@@H]1O (stereo partly drawn)', '0.05 to 0.2 µM');

Q. Would you mind telling me what IC50 value was observed for NS(=O)(=O)OC[C@H]1[C@H](F)[C@@H](Nc2ncncc2C(=O)c2cc3c(s2)CN(CC(F)(F)F)CC32NCCc3ccc(Cl)cc32)C[C@@H]1O (stereo partly drawn) ?
A. ≤ 0.05 µM

Q. Would you mind telling me what IC50 value was observed for NS(=O)(=O)OC[C@H]1[C@H](F)[C@@H](Nc2ncncc2C(=O)c2cc3c(s2)CSCC32NCCc3ccc(F)cc32)C[C@@H]1O (stereo partly drawn) ?
A. ≤ 0.05 µM
